Test system: HepG2
Assay: Cytotoxicity against human HepG2 cells harboring A16-CD81EGFP assessed as cell viability after 48 hrs by bioluminescence assay
Format: cell-based
Conditions: HepG2, 48 h
measured parameter: IC50 (nM)
The reply should be a number in nM, with the unit left off.

Note IC50 for the compound shown: CCCCCC(=O)N[C@H](Cc1ccc(N)cc1)C(=O)N[C@@H](Cc1ccc(N)cc1)C(=O)N[C@@H](CC(C)C)C(=O)[C@@]1(C)CO1 0.91

Note IC50 for the compound shown: CCCCCC(=O)N[C@H](Cc1ccc(N)cc1)C(=O)N[C@@H](Cc1ccc(N)cc1)C(=O)N[C@@H](Cc1ccccc1)C(=O)[C@@]1(C)CO1 952

Note IC50 for the compound shown: CCCCCC(=O)N[C@@H](C(=O)N[C@@H](CCCC)C(=O)N[C@@H](CC(C)C)C(=O)[C@@]1(C)CO1)C(C)C 1240

* * *

Test system: HepG2
Assay: Cytotoxicity against human HepG2 cells harboring A16-CD81EGFP assessed as cell viability after 48 hrs by bioluminescence assay
Format: cell-based
Conditions: HepG2, 48 h
For each record, write down the corresponding pIC50.
# pIC50 = -log10(concentration in molar units)

Note pIC50 for the compound shown: CCCCCC(=O)N[C@H](Cc1c[nH]c2ccccc12)C(=O)N[C@@H](CCCC)C(=O)N[C@@H](CC(C)C)C(=O)[C@@]1(C)CO1 6.04

Note pIC50 for the compound shown: CCCCCC(=O)NC(Cc1ccc(NC(=O)OC(C)(C)C)cc1)C(=O)N[C@@H](Cc1ccc(NC(=O)OC(C)(C)C)cc1)C(=O)N[C@@H](CC(C)C)C(=O)[C@@]1(C)CO1 (single isomer, unassigned) 6.93

Note pIC50 for the compound shown: CCCCCC(=O)NC(Cc1ccc(NC(=O)OC(C)(C)C)cc1)C(=O)N[C@@H](Cc1ccc(NC(=O)OC(C)(C)C)cc1)C(=O)N[C@@H](Cc1ccccc1)C(=O)[C@@]1(C)CO1 (single isomer, unassigned) 7.34

Note pIC50 for the compound shown: CCCCCC(=O)N[C@@H](Cc1c[nH]c2ccccc12)C(=O)N[C@@H](Cc1c[nH]c2ccccc12)C(=O)N[C@@H](Cc1ccccc1)C(=O)[C@@]1(C)CO1 6.46

Note pIC50 for the compound shown: CCCCCC(=O)N[C@@H](Cc1ccc(N)cc1)C(=O)N[C@@H](CCCC)C(=O)N[C@@H](Cc1ccccc1)C(=O)[C@@]1(C)CO1 5.47

Note pIC50 for the compound shown: CCCCCC(=O)N[C@@H](Cc1ccc(NC(=O)OC(C)(C)C)cc1)C(=O)N[C@@H](CCCC)C(=O)N[C@@H](Cc1ccccc1)C(=O)[C@@]1(C)CO1 6.32

Note pIC50 for the compound shown: CCCCCC(=O)N[C@@H](Cc1ccccc1)C(=O)N[C@@H](CCCC)C(=O)N[C@@H](Cc1ccccc1)C(=O)[C@@]1(C)CO1 7.51

* * *

Test system: HepG2
Test: Cytotoxicity against human HepG2 cells harboring A16-CD81EGFP assessed as cell viability after 48 hrs by bioluminescence assay
Type: cell-based
Details: HepG2, 48 h
measured parameter: pIC50
# pIC50 = -log10(concentration in molar units)

Note pIC50 for the compound shown: CCCCCC(=O)N[C@@H](Cc1ccc(NC(=O)OC(C)(C)C)cc1)C(=O)N[C@@H](CCCC)C(=O)N[C@@H](CC(C)C)C(=O)[C@@]1(C)CO1 7.10

Note pIC50 for the compound shown: CCCCCC(=O)N[C@@H](Cc1ccccc1)C(=O)N[C@@H](CCCC)C(=O)N[C@@H](CC(C)C)C(=O)[C@@]1(C)CO1 7.64

Note pIC50 for the compound shown: CCCCCC(=O)N[C@@H](Cc1ccc(N)cc1)C(=O)N[C@@H](CCCC)C(=O)N[C@@H](CC(C)C)C(=O)[C@@]1(C)CO1 8.20

Note pIC50 for the compound shown: CCCCCC(=O)N[C@@H](Cc1c[nH]c2ccccc12)C(=O)N[C@@H](CCCC)C(=O)N[C@@H](Cc1ccccc1)C(=O)[C@@]1(C)CO1 8.19

Note pIC50 for the compound shown: CCCCCC(=O)N[C@@H](Cc1c[nH]c2ccccc12)C(=O)N[C@@H](Cc1c[nH]c2ccccc12)C(=O)N[C@@H](CC(C)C)C(=O)[C@@]1(C)CO1 7.93

Note pIC50 for the compound shown: CCCCCC(=O)N[C@H](C(=O)N[C@@H](CCCC)C(=O)N[C@@H](CC(C)C)C(=O)[C@@]1(C)CO1)C(C)C 6.87
